- Tested on: platelet aggregation (platelet rich plasma)
- ASSAY_NOTES: Platelet aggregation inhibitory activity, ADP-induced (Pharmacological test 1)
- Type: cell-based, human beings
- CONDITION_PARAMETERS: Homo sapiens, ADP (14 to 16 μM), Conc. 10^-6 mol, read-out: Platelet aggregation inhibitory rate (%)
ENDPOINT_NAME: inhibition at 1 µM (%)

> print(dat)
                                   molecule       endpoint.name  numeric.value
1  CN(Cc1ccccc1)CC(O)COc1ccc2[nH]c(=O)ccc2c1 (centres unmarked)  inhibition at 1 µM           14.9
2  CN(Cc1ccccn1)CC(O)COc1ccc2[nH]c(=O)ccc2c1 (centres unmarked)  inhibition at 1 µM           13.5
3  O=c1ccc2cc(OCC(O)CNCc3cccc(Cl)c3)ccc2[nH]1 (centres unmarked)  inhibition at 1 µM            5.1
4  COc1ccc(CNCC(O)COc2ccc3[nH]c(=O)ccc3c2)cc1OC (centres unmarked)  inhibition at 1 µM            9.5
5  COc1ccc(CNCC(O)COc2ccc3[nH]c(=O)ccc3c2)cc1 (centres unmarked)  inhibition at 1 µM            7.4
6  COc1cccc(CNCC(O)COc2ccc3[nH]c(=O)ccc3c2)c1 (centres unmarked)  inhibition at 1 µM           14.9
7  O=c1ccc2cc(OCC(O)CNCc3ccc(Cl)cc3)ccc2[nH]1 (centres unmarked)  inhibition at 1 µM           13.2
8  CN(CCN(C)c1ccccc1)CC(O)COc1ccc2[nH]c(=O)ccc2c1 (centres unmarked)  inhibition at 1 µM           21.6

* * *

- Tested on: C-AMP phosphodiesterase
- ASSAY_NOTES: C-AMP phosphodiesterase inhibitory activity (Pharmacological test 2)
- Assay type: biochemical, dog
- CONDITION_PARAMETERS: Conc. 10^-4 mol; C-AMP 0.4 μmol
Decide by Phosphodiesterase inhibitory rate (%): equal to or exceeding 30% means yes, less means no.

> print(dat)
                                   molecule  class
1  O=c1ccc2cc(OCC(O)CNCc3ccc(Cl)cc3)ccc2[nH]1 (centres unmarked)    yes
2  COc1cccc(CNCC(O)COc2ccc3[nH]c(=O)ccc3c2)c1 (centres unmarked)     no
3  O=c1ccc2cc(OCC(O)CN(CCO)Cc3ccc(F)cc3)ccc2[nH]1 (centres unmarked)     no
4  CCOc1ccc(CNCC(O)COc2ccc3[nH]c(=O)ccc3c2)cc1OCC (centres unmarked)    yes
5  COc1ccc(CNCC(O)COc2ccc3[nH]c(=O)ccc3c2)cc1OC (centres unmarked)     no

* * *

- Test system: C-AMP phosphodiesterase
- ASSAY_NOTES: C-AMP phosphodiesterase inhibitory activity (Pharmacological test 2)
- Assay type: biochemical, dog
- CONDITION_PARAMETERS: Conc. 10^-5 mol; C-AMP 0.4 μmol
Decide by Phosphodiesterase inhibitory rate (%): equal to or exceeding 70% means class 1, less means class 0.

> print(dat)
                                   molecule    class
1  COc1ccc(CNCC(O)COc2ccc3[nH]c(=O)ccc3c2)cc1OC (centres unmarked) [compound 7]  class 1
2  CCOc1ccc(CNCC(O)COc2ccc3[nH]c(=O)ccc3c2)cc1OCC (centres unmarked) [compound 9]  class 1
3  O=c1ccc2cc(OCC(O)CNCc3ccc(Cl)cc3)ccc2[nH]1 (centres unmarked) [compound 3]  class 1
4  COc1cccc(CNCC(O)COc2ccc3[nH]c(=O)ccc3c2)c1 (centres unmarked) [compound 2]  class 0
5  O=c1ccc2cc(OCC(O)CN(CCO)Cc3ccc(F)cc3)ccc2[nH]1 (centres unmarked) [compound 10]  class 1

Data origin: patent US5401754A
